Hey, just so you know, these numbers are from ChEMBL document CHEMBL3991601.

# tgt: Dual specificity protein kinase CLK1 (Homo sapiens)
# Sequence (P49759 whole entry): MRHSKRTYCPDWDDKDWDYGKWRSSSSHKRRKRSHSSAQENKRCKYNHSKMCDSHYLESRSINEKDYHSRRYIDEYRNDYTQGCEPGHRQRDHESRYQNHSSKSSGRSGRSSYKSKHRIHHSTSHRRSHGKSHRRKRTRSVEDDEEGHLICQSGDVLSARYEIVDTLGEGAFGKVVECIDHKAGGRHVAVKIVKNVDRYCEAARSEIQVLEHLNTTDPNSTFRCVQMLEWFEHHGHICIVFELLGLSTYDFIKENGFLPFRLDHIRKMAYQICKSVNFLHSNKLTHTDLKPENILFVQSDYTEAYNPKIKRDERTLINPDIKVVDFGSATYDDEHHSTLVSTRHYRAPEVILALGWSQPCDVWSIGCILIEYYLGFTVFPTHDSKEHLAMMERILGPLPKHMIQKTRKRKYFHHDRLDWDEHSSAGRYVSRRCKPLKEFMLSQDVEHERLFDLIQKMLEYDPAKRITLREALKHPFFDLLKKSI
Active and inactive are the calls of the source.
Labels: active, inactive

# compound, cat
rows = [
    ("Cc1nc2cc(-c3nn(C(C)C)c4ncnc(N)c34)ccc2o1", "inactive"),
    ("CNC(=O)c1cccc2cc(Oc3ccnc4cc(OCC5(N)CC5)c(OC)cc34)ccc12", "inactive"),
    ("C[C@@H](NC(=O)c1ncnc(N)c1Cl)c1ncc(C(=O)Nc2cc(C(F)(F)F)c(Cl)cn2)s1", "active"),
    ("C=CC(=O)Nc1cc2c(Nc3ccc(F)c(Cl)c3)ncnc2cc1C#CC(C)(C)N1CCN(C)CC1 [AV-412 FREE BASE]", "inactive"),
    ("COc1ccc(S(=O)(=O)N(C(C)=O)c2ccccc2/C=C/c2cc[n+]([O-])cc2)cc1", "inactive"),
    ("COCC(=O)NC/C=C/c1ccc2ncnc(Nc3ccc(Oc4ccc(C)nc4)c(C)c3)c2c1", "inactive"),
    ("NC1(c2ccc(-c3nc4ccn5c(=O)[nH]nc5c4cc3-c3ccccc3)cc2)CCC1", "inactive"),
    ("FC(F)(F)c1ccc(/C=C/c2nc(COc3ccc(CCCCn4ccnn4)cc3)co2)cc1", "inactive"),
    ("Cc1nc(NC(=O)N2CCC[C@H]2C(N)=O)sc1-c1ccnc(C(C)(C)C(F)(F)F)c1", "inactive"),
    ("C[C@@H](N)c1ccc(C(=O)Nc2ccnc3[nH]ccc23)cc1", "active"),
    ("Cc1csc(-c2nnc(Nc3ccc(Oc4ncccc4-c4ccnc(N)n4)cc3)c3ccccc23)c1", "active"),
    ("CC(=O)NCC(=O)N1[C@@H]2CC[C@H]1c1ccc(Nc3ncc(C(F)(F)F)c(NC4CCC4)n3)cc12", "inactive"),
    ("N#CC1(c2ccc(NC(=O)c3cccnc3NCc3ccncc3)cc2)CCCC1", "inactive"),
    ("CNC(=O)c1nn(C)c2c1C(C)(C)Cc1cnc(Nc3ccc(N4CCN(C)CC4)cc3)nc1-2", "active"),
    ("Cc1cc(C(=O)NOCCO)c(Nc2ccc(I)cc2F)n(C)c1=O", "inactive"),
    ("Cn1cc(-c2cnc3ccc4ccc(CS(=O)(=O)NCc5ccccn5)cc4c(=O)c3c2)cn1", "inactive"),
    ("COCc1c(-c2ccc(NC(=O)Nc3cc(C(F)(F)F)ccc3F)c(F)c2)c2c(N)ncnn2c1CN1CCOCC1", "inactive"),
    ("C=CC(=O)N1CCC[C@H](n2c(=O)n(-c3ccc(Oc4ccccc4)cc3)c3c(N)ncnc32)C1", "inactive"),
    ("NC(=O)Nc1cc(-c2cccc(F)c2)sc1C(=O)N[C@H]1CCCNC1", "inactive"),
    ("CN1CCN(CCOc2cc(OC3CCOCC3)c3c(Nc4c(Cl)ccc5c4OCO5)ncnc3c2)CC1", "inactive"),
    ("CN1C/C=C/CCOc2cccc(c2)-c2ccnc(n2)Nc2cccc(c2)C1", "inactive"),
    ("O=c1[nH]ccc2cc(OC3CCNCC3)ccc12 [SAR-407899 FREE BASE]", "inactive"),
]

###

# tgt: cAMP-dependent protein kinase catalytic subunit gamma (Homo sapiens, UniProt P22612)
# Sequence (P22612 whole entry): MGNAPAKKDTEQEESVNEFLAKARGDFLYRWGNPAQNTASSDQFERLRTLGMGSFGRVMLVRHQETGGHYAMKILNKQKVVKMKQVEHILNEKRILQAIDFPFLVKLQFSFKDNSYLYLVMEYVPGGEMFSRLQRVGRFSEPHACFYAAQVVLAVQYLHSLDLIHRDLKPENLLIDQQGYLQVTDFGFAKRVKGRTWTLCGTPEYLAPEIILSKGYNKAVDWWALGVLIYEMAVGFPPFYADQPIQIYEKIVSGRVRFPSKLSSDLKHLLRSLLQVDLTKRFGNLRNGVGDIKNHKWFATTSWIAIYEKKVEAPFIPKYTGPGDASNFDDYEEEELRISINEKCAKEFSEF
Activity calls are given as the source filed them.
Labels: 1 (yes) (active), 0 (no) (inactive)

# molecule, cat
records = [
    ("COCc1c(-c2ccc(NC(=O)Nc3cc(C(F)(F)F)ccc3F)c(F)c2)c2c(N)ncnn2c1CN1CCOCC1", "0 (no)"),
    ("CCNC(=O)C#Cc1ccc2c(c1)NC(=O)/C2=C(\\Nc1ccc(CN(C)C)cc1)c1ccccc1", "0 (no)"),
    ("CN(C[C@@H]1COCCO1)S(=O)(=O)Nc1ccc2ccc3ncc(-c4cnn(C)c4)cc3c(=O)c2c1 [MK-2461]", "0 (no)"),
    ("CN1CCN(CCOc2cc(OC3CCOCC3)c3c(Nc4c(Cl)ccc5c4OCO5)ncnc3c2)CC1 [SARACATINIB]", "0 (no)"),
    ("C[C@H]1CNCCCN1S(=O)(=O)c1cccc2cncc(F)c12", "0 (no)"),
    ("CO[C@H]1C[C@@H]2CC[C@@H](C)[C@@](O)(O2)C(=O)C(=O)N2CCCC[C@H]2C(=O)O[C@H]([C@H](C)C[C@@H]2CC[C@@H](OC(=O)C(C)(CO)CO)[C@H](OC)C2)CC(=O)[C@H](C)/C=C(\\C)[C@@H](O)[C@@H](OC)C(=O)[C@H](C)C[C@H](C)/C=C/C=C/C=C/1C [TEMSIROLIMUS]", "0 (no)"),
    ("N#CC[C@H](C1CCCC1)n1cc(-c2ncnc3[nH]ccc23)cn1 [RUXOLITINIB]", "0 (no)"),
    ("CO[C@H]1C[C@@H]2CC[C@@H](C)[C@@](O)(O2)C(=O)C(=O)N2CCCC[C@H]2C(=O)O[C@H]([C@H](C)C[C@@H]2CC[C@@H](OP(C)(C)=O)[C@H](OC)C2)CC(=O)[C@H](C)/C=C(\\C)[C@@H](O)[C@@H](OC)C(=O)[C@H](C)C[C@H](C)/C=C/C=C/C=C/1C [RIDAFOROLIMUS]", "0 (no)"),
    ("CNC(=O)c1ccccc1Sc1ccc2c(/C=C/c3ccccn3)n[nH]c2c1 [AXITINIB]", "0 (no)"),
    ("Cn1cc(-c2cnn3c(N)c(Br)c([C@@H]4CCCNC4)nc23)cn1 [SCH-900776]", "0 (no)"),
    ("CNC(=O)c1nn(C)c2c1C(C)(C)Cc1cnc(Nc3ccc(N4CCN(C)CC4)cc3)nc1-2 [MILCICLIB]", "0 (no)"),
    ("Cn1cnc2c(F)c(Nc3ccc(Br)cc3F)c(C(=O)NOCCO)cc21 [BINIMETINIB]", "0 (no)"),
    ("C[C@@H](Oc1cc(C(=O)Nc2ccc(C(=O)N3CCN(C)CC3)cc2)nnc1N)c1c(Cl)ccc(F)c1Cl", "0 (no)"),
    ("Cc1cccc(-c2nn3c(c2-c2ccnc4ccc(C(N)=O)cc24)CCC3)n1 [GALUNISERTIB]", "0 (no)"),
    ("Cc1cc(C(=O)NOCCO)c(Nc2ccc(I)cc2F)n(C)c1=O [AZD-8330]", "0 (no)"),
    ("O=C(NOCCO)c1cc(CN2OCCCC2=O)c(F)c(F)c1Nc1ccc(I)cc1F [RO-4987655]", "0 (no)"),
    ("COc1ncc(-c2ccc3nccc(-c4ccnnc4)c3c2)cc1NS(=O)(=O)c1ccc(F)cc1F [OMIPALISIB]", "0 (no)"),
    ("Cc1cc(Nc2ncnc3ccc(NC4=NC(C)(C)CO4)cc23)ccc1Oc1ccn2ncnc2c1 [TUCATINIB]", "0 (no)"),
    ("CC(C)(C)c1nc(-c2cccc(NS(=O)(=O)c3c(F)cccc3F)c2F)c(-c2ccnc(N)n2)s1 [DABRAFENIB]", "0 (no)"),
    ("Cn1cc(C2=C(c3cn(C4CCN(Cc5ccccn5)CC4)c4ccccc34)C(=O)NC2=O)c2ccccc21 [ENZASTAURIN]", "0 (no)"),
    ("C[C@@H](N)c1ccc(C(=O)Nc2ccnc3[nH]ccc23)cc1 [Y-39983]", "0 (no)"),
    ("Cc1nc(Nc2n[nH]c3c2CN(C(=O)N[C@H](CN(C)C)c2ccccc2)C3(C)C)c2sccc2n1 [PF-03758309]", "1 (yes)"),
    ("CCS(=O)(=O)c1cccc(-c2cc(C(=O)NC3CCN(C)CC3)c(C)c3[nH]c4ncc(C)cc4c23)c1 [TAK-901]", "0 (no)"),
    ("Cc1nc(NC(=O)N2CCC[C@H]2C(N)=O)sc1-c1ccnc(C(C)(C)C(F)(F)F)c1 [ALPELISIB]", "1 (yes)"),
]

###

# tgt: Tyrosine-protein kinase HCK (Homo sapiens, UniProt P08631)
# Sequence (P08631 whole entry): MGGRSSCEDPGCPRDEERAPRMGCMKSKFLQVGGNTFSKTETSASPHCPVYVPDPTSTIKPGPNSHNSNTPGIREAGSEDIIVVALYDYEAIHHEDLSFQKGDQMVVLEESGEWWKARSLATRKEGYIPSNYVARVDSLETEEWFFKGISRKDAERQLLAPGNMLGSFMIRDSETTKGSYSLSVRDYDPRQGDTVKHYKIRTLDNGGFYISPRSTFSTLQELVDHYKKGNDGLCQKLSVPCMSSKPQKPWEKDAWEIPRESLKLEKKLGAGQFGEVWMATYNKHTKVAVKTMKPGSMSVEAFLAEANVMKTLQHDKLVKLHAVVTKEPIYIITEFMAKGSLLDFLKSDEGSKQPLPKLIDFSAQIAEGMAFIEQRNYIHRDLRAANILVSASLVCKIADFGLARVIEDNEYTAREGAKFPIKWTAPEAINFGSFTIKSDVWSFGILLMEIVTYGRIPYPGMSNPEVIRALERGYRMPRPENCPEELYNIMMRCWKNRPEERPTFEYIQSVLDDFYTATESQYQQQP
The source made the active and inactive calls.
Labels: active, inactive

# molecule, cat
measured = [
    ("O=C(Nc1cc(C(F)(F)F)cc(C(F)(F)F)c1)c1cc(Cl)ccc1O", "inactive"),
    ("Cc1cccc(-c2nn3c(c2-c2ccnc4ccc(C(N)=O)cc24)CCC3)n1", "inactive"),
    ("C[C@@H](N)c1ccc(C(=O)Nc2ccnc3[nH]ccc23)cc1", "inactive"),
    ("O=C1NC(=O)[C@@H](c2cn3c4c(cccc24)CCC3)[C@@H]1c1c[nH]c2ccccc12 [TIVANTINIB]", "inactive"),
    ("NC(=O)Nc1cc(-c2cccc(F)c2)sc1C(=O)N[C@H]1CCCNC1", "active"),
]

###

# tgt: Serine/threonine-protein kinase ULK1 (Homo sapiens, UniProt O75385)
# Sequence (O75385 whole entry): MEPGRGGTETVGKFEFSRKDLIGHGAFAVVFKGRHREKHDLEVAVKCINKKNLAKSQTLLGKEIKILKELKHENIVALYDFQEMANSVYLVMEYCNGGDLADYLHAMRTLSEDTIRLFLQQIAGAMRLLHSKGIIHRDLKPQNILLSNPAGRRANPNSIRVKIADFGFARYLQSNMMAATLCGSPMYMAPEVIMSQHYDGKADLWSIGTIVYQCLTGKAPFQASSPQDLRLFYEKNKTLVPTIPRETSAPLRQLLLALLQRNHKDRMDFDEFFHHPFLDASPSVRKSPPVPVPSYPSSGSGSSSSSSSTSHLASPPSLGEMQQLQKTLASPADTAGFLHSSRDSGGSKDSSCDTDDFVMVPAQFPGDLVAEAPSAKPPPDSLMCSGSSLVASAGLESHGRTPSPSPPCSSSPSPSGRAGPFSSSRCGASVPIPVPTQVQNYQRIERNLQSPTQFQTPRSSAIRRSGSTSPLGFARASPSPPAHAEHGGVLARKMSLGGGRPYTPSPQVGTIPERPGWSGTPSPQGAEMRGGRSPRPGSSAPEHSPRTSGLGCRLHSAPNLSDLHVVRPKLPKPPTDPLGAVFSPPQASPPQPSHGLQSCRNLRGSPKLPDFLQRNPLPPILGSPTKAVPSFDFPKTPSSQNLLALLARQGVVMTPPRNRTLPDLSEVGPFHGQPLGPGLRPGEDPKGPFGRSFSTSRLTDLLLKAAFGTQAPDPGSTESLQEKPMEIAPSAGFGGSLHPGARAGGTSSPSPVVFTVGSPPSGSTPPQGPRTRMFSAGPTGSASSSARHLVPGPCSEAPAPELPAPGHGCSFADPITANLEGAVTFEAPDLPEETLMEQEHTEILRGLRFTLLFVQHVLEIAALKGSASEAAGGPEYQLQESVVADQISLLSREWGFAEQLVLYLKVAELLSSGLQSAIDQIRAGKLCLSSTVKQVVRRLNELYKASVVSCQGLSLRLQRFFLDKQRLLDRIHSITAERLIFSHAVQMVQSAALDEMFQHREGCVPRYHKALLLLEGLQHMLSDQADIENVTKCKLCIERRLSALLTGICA
Active and inactive are the calls of the source.
Labels: active, inactive

# compound, cat
rows = [
    ("CO[C@H]1C[C@@H]2CC[C@@H](C)[C@@](O)(O2)C(=O)C(=O)N2CCCC[C@H]2C(=O)O[C@H]([C@H](C)C[C@@H]2CC[C@@H](O)[C@H](OC)C2)CC(=O)[C@H](C)/C=C(\\C)[C@@H](O)[C@@H](OC)C(=O)[C@H](C)C[C@H](C)/C=C/C=C/C=C/1C", "inactive"),
    ("Cc1nc(Nc2n[nH]c3c2CN(C(=O)N[C@H](CN(C)C)c2ccccc2)C3(C)C)c2sccc2n1", "inactive"),
    ("Cc1cccc(-c2nn3c(c2-c2ccnc4ccc(C(N)=O)cc24)CCC3)n1", "inactive"),
    ("COc1cc2ncnc(Oc3cccc(NC(=O)Nc4cc(C(C)(C)C(F)(F)F)on4)c3)c2cc1OC", "inactive"),
    ("NC(=O)Nc1cc(-c2cccc(F)c2)sc1C(=O)N[C@H]1CCCNC1", "active"),
    ("CCOc1cc2ncc(C#N)c(Nc3ccc(F)c(Cl)c3)c2cc1NC(=O)/C=C/CN(C)C", "inactive"),
    ("FC(F)(F)c1ccc(/C=C/c2nc(COc3ccc(CCCCn4ccnn4)cc3)co2)cc1", "inactive"),
    ("C[C@@H](NC(=O)c1ncnc(N)c1Cl)c1ncc(C(=O)Nc2cc(C(F)(F)F)c(Cl)cn2)s1", "inactive"),
    ("C[C@H]1CNCCCN1S(=O)(=O)c1cccc2cncc(F)c12", "inactive"),
    ("COc1c(OCCCN2CCOCC2)ccc2c1N=C(NC(=O)c1cnc(N)nc1)N1CCN=C21", "inactive"),
    ("N#CC1(c2ccc(NC(=O)c3cccnc3NCc3ccncc3)cc2)CCCC1", "inactive"),
    ("CCn1cc(-c2ccnc3[nH]c(-c4cccc(CN(C)C)c4)cc23)c(-c2ccc(NC(=O)N(C)C)cc2)n1", "inactive"),
    ("O=C(Cc1ccc(-c2ccc(OCCN3CCOCC3)cc2)cn1)NCc1ccccc1", "inactive"),
    ("CC(C)(C)c1nc(-c2cccc(NS(=O)(=O)c3c(F)cccc3F)c2F)c(-c2ccnc(N)n2)s1", "active"),
    ("CNC(=O)c1nn(C)c2c1C(C)(C)Cc1cnc(Nc3ccc(N4CCN(C)CC4)cc3)nc1-2", "active"),
    ("COc1cc(Nc2ncc3c(n2)-c2ccc(Cl)cc2C(c2c(F)cccc2OC)=NC3)ccc1C(=O)O", "inactive"),
    ("Cc1csc(-c2nnc(Nc3ccc(Oc4ncccc4-c4ccnc(N)n4)cc3)c3ccccc23)c1", "active"),
    ("Cc1[nH]c(/C=C2\\C(=O)Nc3ccccc32)c(C)c1CCC(=O)O [ORANTINIB]", "inactive"),
    ("CNC(=O)c1cc(Oc2ccc(NC(=O)Nc3cc(C(C)(C)C)nn3-c3ccc4ncccc4c3)c(F)c2)ccn1", "inactive"),
    ("CCCCCCCCCCCCCCCCCCOP(=O)([O-])OC1CC[N+](C)(C)CC1", "inactive"),
    ("Cn1ncc(Cl)c1-c1cc(C(=O)N[C@H](CN)Cc2ccc(F)c(F)c2)oc1Cl", "inactive"),
    ("Cc1cc(Nc2ncc(Cl)c(Nc3ccccc3S(=O)(=O)C(C)C)n2)c(OC(C)C)cc1C1CCNCC1", "inactive"),
]
